As shown below, each of these compounds has a reported LD50 value.
# System: ADJ/PC6A Tumor
# assay overview: effects on ADJ/PC6A tumor (Table 7)
# Type: in vivo, Female, C^- Mice
# conditions: i.p., single dose, 24 days after tumor implant
Form entry: value (mg/kg) — number only.

[[record]]
compound = "CCOC(=O)c1c[nH]c(=O)[nH]c1=O"
reported_value = 670

[[record]]
compound = "O=c1[nH]cc(CO)c(=O)[nH]1 [5-hydroxymethyluracil Class IA]"
reported_value = 40

[[record]]
compound = "CC1CNC(=O)NC1=O (stereo not shown) [5,6-dihydrothymine Class IA]"
reported_value = 135


Pending compound:
**Query** Quickly give me recorded LD50 for "O=c1cc(Cl)[nH]c(=O)[nH]1"
**Result** 200

====

# Tested on: ascites Sarcoma-180 tumor
# assay overview: chemotherapeutic activity vs ascites Sarcoma-180 tumor, single i.p. injection on day 1 (Table 2 survey)
# Format: in vivo, Swiss White mice
# conditions: carrier saline; single i.p. day 1
As shown below, each of these compounds has a reported Dose of Best % ILS value.
Form entry: value (mg/kg) — number only.

Answered examples (5):
[[record]]
compound = "N.N.[Cl][Pt][Cl] [cis-dichlorodiammineplatinum(II)]"
reported_value = 7

[[record]]
compound = "O=c1[nH]cc(CO)c(=O)[nH]1 [5-hydroxymethyluracil Class IA]"
reported_value = 100

[[record]]
compound = "CC1CNC(=O)NC1=O (stereo not drawn) [5,6-dihydrothymine Class IA]"
reported_value = 200

[[record]]
compound = "O=c1cc(Cl)[nH]c(=O)[nH]1 [6-chlorouracil Class IA]"
reported_value = 200

[[record]]
compound = "CCOC(=O)c1c[nH]c(=O)[nH]c1=O [5-carbethoxyuracil Class IA]"
reported_value = 200


**Query** Quickly give me recorded Dose of Best % ILS for CC#N.CC#N.[Cl][Pt][Cl] [Pt(CH3 CN)2 Cl2, reference compound]
**Result** 25

====

# Test system: ascites Sarcoma-180 tumor
# assay overview: chemotherapeutic activity vs ascites Sarcoma-180 tumor, single i.p. injection on day 1 (Table 2 survey)
# Assay type: in vivo, Swiss White mice
# conditions: carrier saline; 6 animals per test
As shown below, each of these molecules has a reported # of cures value.
Field format: numeric only.

Answered examples (4):
[[record]]
molecule = "CC#N.CC#N.[Cl][Pt][Cl] [Pt(CH3 CN)2 Cl2, reference compound]"
reported_value = 1

[[record]]
molecule = "CCOC(=O)c1c[nH]c(=O)[nH]c1=O"
reported_value = 0

[[record]]
molecule = "O=c1cc(Cl)[nH]c(=O)[nH]1"
reported_value = 3

[[record]]
molecule = "O=c1[nH]cc(CO)c(=O)[nH]1 [5-hydroxymethyluracil Class IA]"
reported_value = 2


**Query** Quickly give me recorded # of cures for CC1CNC(=O)NC1=O (centres unmarked) [5,6-dihydrothymine Class IA]
**Result** 2

These measurements were taken from patent US4419351A.
